Quantity: melting point

compound=COCc1nc2c(N)nc3ccccc3c2n1CC(C)(C)O recorded_measurement="174 to 175 °C"
compound=CCCc1c(OCc2cccc(-c3nnn[nH]3)c2)ccc(C(C)=O)c1O recorded_measurement="194 to 195 °C"
compound=COC(=O)c1cc(C(=O)NCCNC(C)=O)c2cc(Cc3ccc(F)cc3)cnc2c1O recorded_measurement="251 to 253 °C"
compound="Cc1nc(-c2ccccc2C(F)(F)F)c(CC(Cl)C(=O)O)o1 (stereo unspecified)" recorded_measurement="158 to 159 °C"
compound=COc1cc(NCCCCCCN2CCCN(C)CC2)c2nccc(C)c2c1 recorded_measurement="137 to 139 °C"
compound="COc1cc(OC)nc(Oc2cccc3c2C(=O)SC3C)n1 (stereo unspecified)" recorded_measurement="157 to 159 °C"

---

// values below are reported melting point
Quantity: melting point

molecule=Cc1cc(=O)[nH]c2ccc(OCCCN3CCN(Cc4ccc(F)cc4)CC3)cc12 recorded_measurement="178 to 180 °C"
molecule=CC1(C)CON(Cc2ccc(NC(=O)C3CC3)cc2Cl)C1=O recorded_measurement="191 to 193 °C"
molecule=CCCc1ccc2nc(N)sc2c1 recorded_measurement="120 to 122 °C"
molecule=CCCc1nn(C)c2c(=O)[nH]c(-c3cc(NS(C)(=O)=O)ccc3OCC)nc12 recorded_measurement="205 to 206 °C"
molecule="O=C1CCC2C=C(c3cccnc3)C(O)=CC2N1 (stereo not given)" recorded_measurement="298 °C"
molecule=COc1c([N+](=O)[O-])cc(Br)c2c1C(=O)CC2 recorded_measurement="138 to 139 °C"
molecule=N#CSCC(=O)c1cccc(Br)c1 recorded_measurement="91 to 93 °C"
molecule=O=C(Cl)N(OCc1ccccc1)C1c2ccccc2Oc2ccccc21 recorded_measurement="117 °C"
molecule=CCOC(=O)CCc1ccc(OCCCc2cn(-c3ccc(C(F)(F)F)cn3)nc2OCC)c(O)c1 recorded_measurement="92 to 93 °C"
molecule=CCCc1c(C(=O)C(C)C)c2ccc(C(=O)O)cc2n1Cc1ccc(F)cc1Cl recorded_measurement="243 to 244 °C"
molecule="COc1ccc(CN2C(=O)[C@H](NC(=O)COc3ccccc3)[C@@H]2c2ccccc2C2OCCO2)c(OC)c1 (relative stereo)" recorded_measurement="137 to 138 °C"
molecule="COc1ccc(-c2ccccn2)c(S(=O)c2nc3cc(OC)c(OC)cc3[nH]2)c1 (stereo not given)" recorded_measurement="208 to 210 °C"
molecule=COC(=O)[C@@H](NC(=O)OCc1ccccc1)[C@H](O)c1ccccc1 recorded_measurement="107 to 108 °C"
molecule="CC(C)(C)OC(=O)N1CCCC1C(=O)NCCC(N)=O (stereo not given)" recorded_measurement="175 °C"
molecule=Oc1ccc2nc(-c3ccc(O)c(F)c3)cc(-c3ccc(F)cc3)c2c1 recorded_measurement="240 to 243 °C"
molecule="COC(=O)C1(CN=Cc2ccccc2)C=CC=CC1 (stereo not given)" recorded_measurement="86 to 89 °C"
molecule=CC1(C)COC(=O)N1c1nc(-c2ccc(Br)cc2)cs1 recorded_measurement="165 to 167 °C"
molecule=CCOC(=O)Cn1c(=O)n(Cc2ccc(Cl)c(Cl)c2)c(=O)c2ccccc21 recorded_measurement="121 to 122 °C"
molecule="O=C1CCCN1CCCC(=O)N1CCC(C2c3ncc(Br)cc3CCc3cc(Cl)cc(Br)c32)CC1 (single isomer, unassigned; (+))" recorded_measurement="127 to 128 °C"
molecule=COC(=O)C1=Cc2cc(Br)ccc2N(C)CCC1 recorded_measurement="88 to 89 °C"
molecule=O=c1c(-c2cccc(Cl)c2)coc2c(O)c(O)ccc12 recorded_measurement="258 °C"
molecule="CC1(C)CC(=O)OC1CC(=O)c1ccc(Cl)cc1 (stereo not given)" recorded_measurement="76 to 80 °C"
molecule="COc1ccc(OC)c(CCC(C)(O)CC2CCCCN2)c1 (stereo not given)" recorded_measurement="85 to 90 °C"
molecule=CC(C)(C(=O)c1ccc(Cl)cc1)n1ncn(-c2ccc(N3CCN(Cc4ccccc4)CC3)cc2)c1=O recorded_measurement="150 °C"
molecule="OC1CSC(Oc2cccc3ccoc23)C(O)C1O (stereo not given)" recorded_measurement="160 °C"
molecule="CSC(C(N)=O)c1ccccc1N (stereo not given)" recorded_measurement="98.5 to 99.5 °C"
molecule="Oc1ccc2c(c1O)OCC(c1ccccc1)C2 (stereo not given)" recorded_measurement="138 °C"
molecule=CN1CCN(c2ccc(NC(=O)c3cc4ccccc4s3)cc2C#N)CC1 recorded_measurement="263 to 264 °C"
molecule=CCOC(=O)c1ccc2nc3sc(C(C)C)cc3c(=O)n2c1 recorded_measurement="122 to 123 °C"
molecule=Cn1c2ccncc2c(=O)n2nccc12 recorded_measurement="> 300 °C"

---

// values below are reported melting point
Quantity: melting point

compound=CC(=Cc1ccc(C)cc1C)c1ccc2c(c1)C(C)(C)CCC2(C)C recorded_measurement="54 to 56 °C"
compound="CC(=O)OC1CSC(Oc2cncc(-c3ccc(C)cc3Cl)c2)C(OC(C)=O)C1OC(C)=O (stereo not given)" recorded_measurement="162 °C"
compound="CCCCCCCCC(C)C(N)=O (stereo not given)" recorded_measurement="80 to 81 °C"
compound=CCc1coc2c(-c3ccc(F)cc3)c(-c3ccc(S(N)(=O)=O)cc3)nn12 recorded_measurement="234 to 236 °C"
compound=Nc1cccc(C#Cc2c(F)c(F)nc(F)c2F)c1 recorded_measurement="172 to 173 °C"

---

// values below are reported melting point
Quantity: melting point

compound=CCC(CC)(C(=O)OC1CC(C)(C)N(OCc2ccccc2)C(C)(C)C1)C(=O)OC1CC(C)(C)N(OCc2ccccc2)C(C)(C)C1 recorded_measurement="122 to 123 °C"
compound="COc1ccc(C2CCc3ccccc3O2)cc1 (stereo not given)" recorded_measurement="82 to 83 °C"
compound=COc1ccc2c(c1)NC1(CCN(C(C)=O)CC1)c1cccn1-2 recorded_measurement="211 to 213 °C"
compound="COC(=O)c1ccc2c(c(C)nn2C)c1C1=NC(C)(C(C)C)C(=O)N1 (stereo not given)" recorded_measurement="130 to 150 °C"
compound="CCC(C(=O)c1ccc(Cl)cc1)n1ncn(-c2ccc(N3CCN(c4nc5ccccc5s4)CC3)cc2)c1=O (stereo not given)" recorded_measurement="162 °C"
compound=CN(C)C(=O)c1ccc(C(=O)CS(=O)(=O)C(c2ccc(Cl)cc2)c2ccc(Cl)cc2)s1 recorded_measurement="192 to 194 °C"
compound=CCCCCCCCCCCCOc1ccc(-c2ccc(CCCCC(=O)OCC)cc2)cc1 recorded_measurement="99 °C"
compound=OCc1nn(-c2cccc(C(F)(F)F)c2)c2c1CCCC2 recorded_measurement="93 to 94 °C"
compound=CSc1cn(C)c2cc(-c3ccccc3Cl)sc2c1=O recorded_measurement="175 to 177 °C"
compound=CCCCNC(=O)c1ccc(Cl)c(-n2nc(CCCC)n(Cc3ccc(-c4ccccc4S(=O)(=O)NC(=O)c4ccccc4Cl)cc3)c2=O)c1 recorded_measurement="> 155 °C"

---

Quantity: melting point

compound=COc1ccc2c(=O)cc(-c3ccc(F)cc3)oc2c1 recorded_measurement="162 °C"
compound=O=C(O)c1cc(=O)c2cccc(COc3ccc(OCc4ccc5ccccc5n4)cc3)c2o1 recorded_measurement="221 to 224 °C"
compound=COc1cc(-c2cnc3[nH]cc(C(=O)C(=O)N(C)C)c3n2)cc(OC)c1OC recorded_measurement="227 to 228 °C"
compound=CN1CC=C(c2c[nH]c3ccc(NC(=O)c4ccc(F)cc4Cl)cc23)CC1 recorded_measurement="212 to 222 °C"
compound=NC(=O)CCn1c2ccc(O)cc2c2c3c(c(-c4ccccc4Cl)cc21)C(=O)NC3=O recorded_measurement="319 to 322 °C"
compound=COc1ccc(C=CC(=O)Nc2cnc3cc(C)c(C)cc3c2-c2ccccc2Cl)cc1OC recorded_measurement="210 to 211 °C"
compound=O=C(O)c1cc(-c2ccccc2)c2ccsc2c1 recorded_measurement="222 °C"
compound=CN(C)C=C1Nn2c(nc(-c3ccc([N+](=O)[O-])o3)c2N)S1 recorded_measurement="304 °C"
compound="CN1Cc2ccccc2C(Oc2ccc([N+](=O)[O-])cc2)C1 (centres undefined)" recorded_measurement="142 to 143 °C"
compound=c1csc(-c2cnc(COc3ccc(CCCn4ccnc4)cc3)s2)c1 recorded_measurement="82 to 84 °C"
compound=Cc1cc(C=O)c(OCCCCCCc2ccccc2)c(C=O)c1 recorded_measurement="64 °C"
compound=COc1nc2cc(Cl)c(Cl)c(CSCc3ccccc3)c2nc1OC recorded_measurement="121 to 122 °C"
compound=O=C(O)CCCN(C(=O)c1ccc(Cl)cc1)c1ccccc1-c1ccccc1 recorded_measurement="135 to 137 °C"
compound=Cn1nnnc1S(=O)(=O)Cc1ccccc1 recorded_measurement="122 to 125 °C"
compound=N#Cc1ccc(Cn2c3cc(O)c(O)cc3c3ccc(O)c(O)c32)cc1 recorded_measurement="225 to 227 °C"
compound=CCC[C@H](C)C(=O)O[C@H]1CCC=C2C=C[C@H](C)[C@H](CC[C@@H]3C[C@@H](O)CC(=O)O3)[C@H]21 recorded_measurement="110 to 112 °C"
compound=N#CC(C=O)=C(c1ccc(F)cc1)c1ccc(F)cc1 recorded_measurement="167 to 169 °C"
compound="CC1CCc2ccc3ccccc3c2C1=O (centres undefined)" recorded_measurement="61 to 63 °C"
compound=CCOc1cc(Cn2cc(CCC(=O)O)c(-c3ccccc3)c2)cc(OCc2csc(-c3cccs3)n2)c1 recorded_measurement="104 to 105 °C"
